experiment: physchem; conditions: phosphate buffer, pH 6.5
Description: Aqueous solubility of the compound in phosphate buffer at pH 6.5 by LYSA method
MEASUREMENT NAME: solubility (µg/mL)

INSERT INTO measurements (molecule, measurement_name, endpoint_value) VALUES
  ('CCC(=O)NC1CCCc2c(-c3ccc(Cl)cc3F)cncc21 (racemic)', 'solubility', 129);

(I) CC(=O)NC1CCCc2c(-c3ccc(C#N)cc3)cncc21 (racemic)
(II) CCC(=O)NC1CCCc2c(-c3cc(F)c(F)cc3F)cncc21 (racemic)
Of the two listed items, I and II , which carries the larger solubility figure? Kindly state the label of the option you pick.
I

---

Target chain: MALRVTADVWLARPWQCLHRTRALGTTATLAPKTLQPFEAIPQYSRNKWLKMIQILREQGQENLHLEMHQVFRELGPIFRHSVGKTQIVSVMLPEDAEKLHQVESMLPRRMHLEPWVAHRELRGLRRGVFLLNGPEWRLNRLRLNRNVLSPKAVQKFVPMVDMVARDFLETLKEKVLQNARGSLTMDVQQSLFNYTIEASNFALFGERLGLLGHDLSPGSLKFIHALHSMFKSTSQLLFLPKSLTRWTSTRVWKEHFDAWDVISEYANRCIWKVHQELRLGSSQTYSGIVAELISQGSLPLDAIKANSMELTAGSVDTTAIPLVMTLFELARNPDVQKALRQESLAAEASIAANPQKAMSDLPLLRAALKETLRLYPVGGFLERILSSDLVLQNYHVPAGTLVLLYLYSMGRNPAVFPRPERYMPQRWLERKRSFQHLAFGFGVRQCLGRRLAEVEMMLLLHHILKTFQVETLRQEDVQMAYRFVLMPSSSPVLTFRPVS
MEASUREMENT NAME: pIC50
Scale: negative log10 of molar concentration, which is what pIC50 denotes.

Requested read-out: pIC50. Entry: `N#Cc1ccc([C@H]2CCc3cncn32)c(F)c1`
6.68

---

target: Cytochrome P450 2C9 (Homo sapiens, UniProt P11712)
Sequence (P11712 whole entry): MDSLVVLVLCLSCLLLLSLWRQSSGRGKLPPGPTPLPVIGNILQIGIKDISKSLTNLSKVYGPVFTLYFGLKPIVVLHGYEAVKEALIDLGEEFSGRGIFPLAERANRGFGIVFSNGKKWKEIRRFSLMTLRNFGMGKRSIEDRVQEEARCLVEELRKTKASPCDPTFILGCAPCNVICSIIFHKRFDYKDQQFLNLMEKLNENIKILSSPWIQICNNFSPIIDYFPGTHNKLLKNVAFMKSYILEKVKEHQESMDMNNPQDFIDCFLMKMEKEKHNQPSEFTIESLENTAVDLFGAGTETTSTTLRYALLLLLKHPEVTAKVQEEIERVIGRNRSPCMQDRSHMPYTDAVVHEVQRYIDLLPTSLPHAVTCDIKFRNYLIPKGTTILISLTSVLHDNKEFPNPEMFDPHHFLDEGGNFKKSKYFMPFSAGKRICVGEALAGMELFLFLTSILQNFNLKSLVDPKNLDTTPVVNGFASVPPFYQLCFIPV
MEASUREMENT NAME: IC50

Data request, read-out IC50, for CC(C)C(=O)NC1CCCc2c(-c3ccc(C#N)cc3)cncc21 (racemic)
> 50 µM

---

target: Cytochrome P450 3A4 (Homo sapiens)
Sequence (P08684 whole entry): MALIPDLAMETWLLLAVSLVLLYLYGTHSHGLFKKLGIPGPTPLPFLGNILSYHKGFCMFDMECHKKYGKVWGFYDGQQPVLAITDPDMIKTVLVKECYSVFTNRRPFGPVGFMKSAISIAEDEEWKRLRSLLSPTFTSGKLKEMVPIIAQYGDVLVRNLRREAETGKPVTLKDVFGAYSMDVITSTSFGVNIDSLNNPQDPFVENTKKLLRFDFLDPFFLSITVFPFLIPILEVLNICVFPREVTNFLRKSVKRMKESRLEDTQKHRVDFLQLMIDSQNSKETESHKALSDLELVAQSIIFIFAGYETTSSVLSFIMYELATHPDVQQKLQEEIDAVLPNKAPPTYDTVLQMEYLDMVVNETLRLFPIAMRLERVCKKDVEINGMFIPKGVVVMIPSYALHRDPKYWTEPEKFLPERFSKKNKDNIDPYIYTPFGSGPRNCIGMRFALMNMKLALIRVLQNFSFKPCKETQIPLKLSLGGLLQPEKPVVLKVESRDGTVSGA
MEASUREMENT NAME: IC50

// lookup IC50 | system=Cytochrome P450 3A4 (Homo sapiens) | key= CC(=O)NC1CCCc2c(-c3ccc(C#N)cc3)cncc21 (racemic)
> 50 µM

---

assay: physchem; conditions: PAMPA
Description: Permeability of the compound by PAMPA
MEASUREMENT NAME: Papp

Solved cases below.
INSERT INTO results (compound, endpoint_value) VALUES
  ('CCC(=O)NC1CCCc2c(-c3ccc(F)c(F)c3)cncc21 (racemic)', '> 4 ×10⁻⁶ cm/s'),
  ('CCC(=O)NC1CCCc2c(-c3ccc(Cl)cc3F)cncc21 (racemic)', '> 4 ×10⁻⁶ cm/s'),
  ('CC(=O)NC1CCCc2c(-c3ccc(C#N)cc3)cncc21 (racemic)', '> 4.4 ×10⁻⁶ cm/s'),
  ('CCC(=O)NC1CCCc2c(-c3cc(F)c(F)cc3F)cncc21 (racemic)', '> 4 ×10⁻⁶ cm/s');

Consider the compound CC(C)C(=O)NC1CCCc2c(-c3ccc(C#N)cc3)cncc21 (racemic) and give its measured Papp.
> 4.4 ×10⁻⁶ cm/s

Which Papp value is on record for CCC(=O)NC1CCCc2c(-c3ccc(Cl)c(F)c3)cncc21 (racemic) ?
> 4 ×10⁻⁶ cm/s

---

assay: physchem; details: 1-octanol/TAPSO buffer, pH 7.4
MEASUREMENT NAME: logD

(a) CCC(=O)NC1CCCc2c(-c3ccc(Cl)c(F)c3)cncc21 (racemic)
(b) CC(=O)NC1CCCc2c(-c3ccc(C#N)cc3)cncc21 (racemic)
Response body: label of entry with the larger logD; valid values a , b . Give the label of your selection.
a

---

settings: rat, microsomes
Description: Clearance in rat microsomes assessed per mg of protein
MEASUREMENT NAME: CL (µg/min)

INSERT INTO assay_data (molecule, endpoint_value) VALUES
  ('CCC(=O)NC1CCCc2c(-c3cc(F)c(F)cc3F)cncc21 (racemic)', 78);

(I) CCC(=O)NC1CCCc2c(-c3ccc(Cl)cc3F)cncc21 (racemic)
(II) CCC(=O)NC1CCCc2c(-c3ccc(F)c(F)c3)cncc21 (racemic)
(III) CCC(=O)NC1CCCc2c(-c3ccc(Cl)c(F)c3)cncc21 (racemic)
Descending sort on CL required. Write the labels out in the order the request specifies.
II, I, III
(II: 85 µg/min, I: 46 µg/min, III: 31 µg/min)

---

target: Cytochrome P450 11B2, mitochondrial (Homo sapiens)
Sequence (P19099 whole entry): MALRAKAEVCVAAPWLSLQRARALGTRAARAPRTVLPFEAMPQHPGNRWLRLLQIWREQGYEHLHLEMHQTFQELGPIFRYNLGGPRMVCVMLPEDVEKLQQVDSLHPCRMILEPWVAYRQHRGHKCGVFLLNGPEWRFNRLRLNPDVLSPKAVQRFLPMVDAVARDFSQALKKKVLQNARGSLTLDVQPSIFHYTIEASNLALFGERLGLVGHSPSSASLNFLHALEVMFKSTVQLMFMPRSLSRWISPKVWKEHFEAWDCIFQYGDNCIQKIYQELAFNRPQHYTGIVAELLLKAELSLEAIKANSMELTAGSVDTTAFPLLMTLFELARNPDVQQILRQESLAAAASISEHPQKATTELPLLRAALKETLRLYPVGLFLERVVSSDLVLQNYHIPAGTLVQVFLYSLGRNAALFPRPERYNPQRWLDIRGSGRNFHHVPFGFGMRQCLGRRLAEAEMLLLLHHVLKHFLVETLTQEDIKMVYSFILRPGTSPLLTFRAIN
pIC50: −log10 of the molar value.
MEASUREMENT NAME: pIC50

INSERT INTO results (molecule, endpoint_value) VALUES
  ('N#Cc1ccc(-c2cncc3c2CCCC3N)cc1 (racemic)', 7.38),
  ('CCC(=O)NC1CCCc2c(-c3ccc(F)c(F)c3)cncc21 (racemic)', 7.33);

---

test: physchem; conditions: phosphate buffer, pH 6.5
MEASUREMENT NAME: solubility (µg/mL)

INSERT INTO assay_data (compound, endpoint_value) VALUES
  ('CCC(=O)NC1CCCc2c(-c3ccc(Cl)c(F)c3)cncc21 (racemic)', 99);

(I) CCC(=O)NC1CCCc2c(-c3ccc(F)c(F)c3)cncc21 (racemic)
(II) CC(C)C(=O)NC1CCCc2c(-c3ccc(C#N)cc3)cncc21 (racemic)
Of I and II , whose reported solubility is numerically smaller? Give the label of your selection.
II
(II: 90 µg/mL, I: 310 µg/mL)

---

assay: physchem; conditions: 1-octanol/TAPSO buffer, pH 7.4
MEASUREMENT NAME: logD

INSERT INTO measurements (molecule, measurement_name, endpoint_value) VALUES
  ('CCC(=O)NC1CCCc2c(-c3ccc(F)c(F)c3)cncc21 (racemic)', 'logD', 3),
  ('CCC(=O)NC1CCCc2c(-c3cc(F)c(F)cc3F)cncc21 (racemic)', 'logD', 3.1),
  ('CCC(=O)NC1CCCc2c(-c3ccc(Cl)cc3F)cncc21 (racemic)', 'logD', 3.6),
  ('CC(C)C(=O)NC1CCCc2c(-c3ccc(C#N)cc3)cncc21 (racemic)', 'logD', 2.6);

Values from ChEMBL document CHEMBL3621059
